# assay_name: Plasma concentration in LPS challenged Sprague-Dawley rat at 50 mg/kg, po after 150 mins
# Assay type: ADME, organism-based
# Design: dose 50 mg/kg, route oral
experimental_endpoint: concentration at 2.5 h (nM)
One number for each entry, in nM.

Give its concentration at 2.5 h value. Item: `Cn1cnc(CNc2cc(Br)c3ncc(C#N)c(Nc4ccc(F)c(Cl)c4)c3c2)c1`
550

---

# assay_name: Metabolic stability in rat liver microsomes
# Type: ADME, Microsome
experimental_endpoint: half-life
Express your answer as a number followed by its unit.

Give its half-life value. Item: `N#Cc1cnc2c(Cl)cc(NCc3cnc[nH]3)cc2c1Nc1ccc(F)c(Cl)c1`
35 min

---

# assay_name: Metabolic stability in mouse liver microsomes
# Format: ADME, Microsome
experimental_endpoint: half-life (min)
Answers are plain numbers, in min.

Give its half-life value. Item: `N#Cc1cnc2c(Cl)cc(NCc3cnc[nH]3)cc2c1Nc1ccc(F)c(Cl)c1`
23

---

# assayed_system: Mitogen-activated protein kinase 8 (Homo sapiens, UniProt P45983)
# Sequence (P45983 whole entry): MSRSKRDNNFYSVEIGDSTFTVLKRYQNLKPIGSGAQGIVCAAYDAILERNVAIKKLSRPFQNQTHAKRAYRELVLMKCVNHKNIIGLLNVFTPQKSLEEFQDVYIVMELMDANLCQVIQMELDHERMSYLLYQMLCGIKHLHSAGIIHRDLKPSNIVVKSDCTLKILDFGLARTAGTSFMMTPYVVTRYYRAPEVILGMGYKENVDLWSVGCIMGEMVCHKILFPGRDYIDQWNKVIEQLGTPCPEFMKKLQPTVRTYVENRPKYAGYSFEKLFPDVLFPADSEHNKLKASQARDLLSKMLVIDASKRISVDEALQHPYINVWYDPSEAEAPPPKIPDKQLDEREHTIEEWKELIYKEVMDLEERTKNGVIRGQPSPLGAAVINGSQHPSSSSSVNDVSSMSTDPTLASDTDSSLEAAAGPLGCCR
# assay_name: Inhibition of Jnk1
experimental_endpoint: pIC50
Numbers only, as −log10 of the molar value.

Give its pIC50 value. Item: `Cn1cnc(CNc2cc(Br)c3ncc(C#N)c(Nc4ccc(F)c(Cl)c4)c3c2)c1`
4.51

---

# assay_name: Half life in Sprague-Dawley rat at 25 mg/kg, po
# Format: ADME, organism-based
# Parameters: dose 25 mg/kg, route oral
# cond: in vivo
Criterion: half-life strictly under 4 h. Met: fulfilled. Not met: not fulfilled.

{"smiles": "CN(C)CCCn1cc(CNc2cc(Br)c3ncc(C#N)c(Nc4ccc(F)c(Cl)c4)c3c2)nn1", "assigned_class": "fulfilled"}
{"smiles": "N#Cc1cnc2c(Cl)cc(NCc3cnc[nH]3)cc2c1Nc1ccc(F)c(Cl)c1", "assigned_class": "not fulfilled"}

Moving on to another compound below.
is_below(half-life, 4 h) for `N#Cc1cnc2c(Cl)cc(NCc3cccc[n+]3[O-])cc2c1Nc1ccc(F)c(Cl)c1` ?
not fulfilled

---

# assay_name: Plasma concentration in LPS challenged Sprague-Dawley rat at 50 mg/kg, po after 1 hr
# Format: ADME, organism-based
# Parameters: dose 50 mg/kg, route oral
experimental_endpoint: concentration at 1 h (nM)
Give bare numbers, in nM.

Give its concentration at 1 h value. Item: `Cn1cnc(CNc2cc(Br)c3ncc(C#N)c(Nc4ccc(F)c(Cl)c4)c3c2)c1`
1100

---

# assay_name: Bioavailability in Sprague-Dawley rat at 25 mg/kg, po
# Assay type: ADME, organism-based
# cond: in vivo
Can you tell me bioavailability for the items I'm about to list?
Answers are plain numbers, in %.

{"smiles": "N#Cc1cnc2c(Cl)cc(NCc3cnc[nH]3)cc2c1Nc1ccc(F)c(Cl)c1", "bioavailability, %": 2}
{"smiles": "N#Cc1cnc2c(Br)cc(NCc3cn[nH]n3)cc2c1Nc1ccc(F)c(Cl)c1", "bioavailability, %": 2}

Next molecule, please.
Give its bioavailability value. Item: `Cn1cnc(CNc2cc(Br)c3ncc(C#N)c(Nc4ccc(F)c(Cl)c4)c3c2)c1`
42

---

# assay_name: Volume of distribution at steady state in Sprague-Dawley rat at 5 mg/kg, iv
# Format: ADME, organism-based
# Design: dose 5 mg/kg, route intravenous
# cond: in vivo, read-out: Vss
experimental_endpoint: Vd (L/kg)
Give bare numbers, in L/kg.

Solved entries (count: 2):
{"smiles": "N#Cc1cnc2c(Cl)cc(NCc3cnc[nH]3)cc2c1Nc1ccc(F)c(Cl)c1", "Vd [L/kg]": 2.4}
{"smiles": "Cn1cnc(CNc2cc(Br)c3ncc(C#N)c(Nc4ccc(F)c(Cl)c4)c3c2)c1", "Vd [L/kg]": 14.1}

# map each compound to its Vd
1. N#Cc1cnc2c(Cl)cc(NCc3cccc[n+]3[O-])cc2c1Nc1ccc(F)c(Cl)c1
2. CCCc1[nH]cnc1CNc1cc(Cl)c2ncc(C#N)c(Nc3ccc(F)c(Cl)c3)c2c1
3. N#Cc1cnc2c(Br)cc(NCc3cn[nH]n3)cc2c1Nc1ccc(F)c(Cl)c1

1.6
12.2
2.7

---

# assayed_system: Tyrosine-protein kinase BTK (Homo sapiens, UniProt Q06187)
# Sequence (Q06187 whole entry): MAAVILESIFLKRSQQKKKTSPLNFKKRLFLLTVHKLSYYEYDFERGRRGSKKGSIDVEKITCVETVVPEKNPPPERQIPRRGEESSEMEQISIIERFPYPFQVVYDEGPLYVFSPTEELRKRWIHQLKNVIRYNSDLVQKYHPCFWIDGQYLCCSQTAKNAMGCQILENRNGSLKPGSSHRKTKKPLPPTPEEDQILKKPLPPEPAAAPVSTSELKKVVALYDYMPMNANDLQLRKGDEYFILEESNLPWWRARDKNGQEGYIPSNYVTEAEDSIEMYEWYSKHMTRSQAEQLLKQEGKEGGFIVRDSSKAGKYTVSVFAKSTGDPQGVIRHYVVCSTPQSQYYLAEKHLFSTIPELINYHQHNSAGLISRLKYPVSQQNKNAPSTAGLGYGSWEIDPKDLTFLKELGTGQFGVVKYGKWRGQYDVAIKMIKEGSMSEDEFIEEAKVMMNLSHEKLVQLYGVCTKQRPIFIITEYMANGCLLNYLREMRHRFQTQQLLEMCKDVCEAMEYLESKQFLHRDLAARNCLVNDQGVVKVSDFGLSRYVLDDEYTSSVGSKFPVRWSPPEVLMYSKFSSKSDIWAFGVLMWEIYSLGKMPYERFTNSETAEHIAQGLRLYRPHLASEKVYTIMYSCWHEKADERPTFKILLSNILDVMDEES
experimental_endpoint: IC50

Give its IC50 value. Item: `Cn1cnc(CNc2cc(Br)c3ncc(C#N)c(Nc4ccc(F)c(Cl)c4)c3c2)c1`
> 10 µM

---

Can you tell me IC50 for the items I'm about to list?
# assayed_system: MAP kinase-activated protein kinase 2 (Homo sapiens, UniProt P49137)
# Sequence (P49137 whole entry): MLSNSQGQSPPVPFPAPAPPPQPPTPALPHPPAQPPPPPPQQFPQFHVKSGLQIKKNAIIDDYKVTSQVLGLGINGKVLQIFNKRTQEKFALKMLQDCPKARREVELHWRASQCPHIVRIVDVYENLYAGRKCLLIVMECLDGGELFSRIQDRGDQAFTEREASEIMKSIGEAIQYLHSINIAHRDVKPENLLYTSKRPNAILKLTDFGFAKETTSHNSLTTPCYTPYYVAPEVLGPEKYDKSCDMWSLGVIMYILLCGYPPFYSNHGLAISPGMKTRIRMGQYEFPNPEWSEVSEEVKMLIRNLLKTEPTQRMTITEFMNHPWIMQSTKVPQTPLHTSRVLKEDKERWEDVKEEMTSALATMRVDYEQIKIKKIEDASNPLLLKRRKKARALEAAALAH
# assay_name: Inhibition of MK2
Answers are plain numbers, in µM.

Solved entries (count: 3):
{"smiles": "CCCc1[nH]cnc1CNc1cc(Cl)c2ncc(C#N)c(Nc3ccc(F)c(Cl)c3)c2c1", "experimental_endpoint": "IC50", "observed": 62.7}
{"smiles": "Cn1cnc(CNc2cc(Br)c3ncc(C#N)c(Nc4ccc(F)c(Cl)c4)c3c2)c1", "experimental_endpoint": "IC50", "observed": 87.1}
{"smiles": "N#Cc1cnc2c(Cl)cc(NCc3cccc[n+]3[O-])cc2c1Nc1ccc(F)c(Cl)c1", "experimental_endpoint": "IC50", "observed": 40.1}

Next molecule, please.
Give its IC50 value. Item: `N#Cc1cnc2c(Cl)cc(NCc3cnc[nH]3)cc2c1Nc1ccc(F)c(Cl)c1`
40.2

---

# assayed_system: Mitogen-activated protein kinase kinase kinase 8 (Homo sapiens)
# Sequence (P41279 whole entry): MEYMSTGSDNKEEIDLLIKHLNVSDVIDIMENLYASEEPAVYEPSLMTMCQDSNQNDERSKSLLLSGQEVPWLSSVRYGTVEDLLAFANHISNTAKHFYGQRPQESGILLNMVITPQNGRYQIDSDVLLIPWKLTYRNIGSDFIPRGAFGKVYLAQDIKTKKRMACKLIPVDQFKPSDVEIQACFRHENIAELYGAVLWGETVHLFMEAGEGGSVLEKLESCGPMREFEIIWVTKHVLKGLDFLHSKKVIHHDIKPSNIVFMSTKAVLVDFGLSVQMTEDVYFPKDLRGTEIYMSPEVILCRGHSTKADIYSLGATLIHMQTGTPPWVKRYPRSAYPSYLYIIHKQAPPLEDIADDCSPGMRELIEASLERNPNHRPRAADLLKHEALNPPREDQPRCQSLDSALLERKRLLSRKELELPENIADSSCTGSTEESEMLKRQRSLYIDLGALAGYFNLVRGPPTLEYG
# assay_name: Inhibition of Tpl2 by ELISA
experimental_endpoint: IC50 (µM)
One number for each entry, in µM.

Solved entries (count: 8):
{"molecule": "N#Cc1cnc2c(C(F)(F)F)cc(NCc3c[nH]cn3)cc2c1Nc1ccc(F)c(Cl)c1", "assayed_system": "Mitogen-activated protein kinase kinase kinase 8 (Homo sapiens)", "observed": 0.16}
{"molecule": "N#Cc1cnc2c(Br)cc(NCc3c[nH]cn3)cc2c1Nc1ccc(F)c(Cl)c1", "assayed_system": "Mitogen-activated protein kinase kinase kinase 8 (Homo sapiens)", "observed": 0.01}
{"molecule": "N#Cc1cnc2c(F)cc(NCc3c[nH]cn3)cc2c1Nc1ccc(F)c(Cl)c1", "assayed_system": "Mitogen-activated protein kinase kinase kinase 8 (Homo sapiens)", "observed": 0.02}
{"molecule": "N#Cc1cnc2c(OCC(O)CO)cc(NCc3cnc[nH]3)cc2c1Nc1ccc(F)c(Cl)c1 (stereo not given)", "assayed_system": "Mitogen-activated protein kinase kinase kinase 8 (Homo sapiens)", "observed": 0.83}
{"molecule": "N#Cc1cnc2c(Cl)cc(NCc3cnc[nH]3)cc2c1Nc1ccc(F)c(Cl)c1", "assayed_system": "Mitogen-activated protein kinase kinase kinase 8 (Homo sapiens)", "observed": 0.02}
{"molecule": "COc1cc(NCc2c[nH]cn2)cc2c(Nc3ccc(F)c(Cl)c3)c(C#N)cnc12", "assayed_system": "Mitogen-activated protein kinase kinase kinase 8 (Homo sapiens)", "observed": 0.13}
{"molecule": "N#Cc1cnc2c(Cl)cc(NCC(=O)O)cc2c1Nc1ccc(F)c(Cl)c1", "assayed_system": "Mitogen-activated protein kinase kinase kinase 8 (Homo sapiens)", "observed": 0.2}
{"molecule": "N#Cc1cnc2c(Cl)cc(NCc3cccc(N4CCOCC4)n3)cc2c1Nc1ccc(F)c(Cl)c1", "assayed_system": "Mitogen-activated protein kinase kinase kinase 8 (Homo sapiens)", "observed": 0.35}

Next molecule, please.
Give its IC50 value. Item: `N#Cc1cnc2c(Cl)cc(NCc3nn[nH]n3)cc2c1Nc1ccc(F)c(Cl)c1`
0.002

---

# assayed_system: Mitogen-activated protein kinase 14 (Homo sapiens)
# Sequence (Q16539 whole entry): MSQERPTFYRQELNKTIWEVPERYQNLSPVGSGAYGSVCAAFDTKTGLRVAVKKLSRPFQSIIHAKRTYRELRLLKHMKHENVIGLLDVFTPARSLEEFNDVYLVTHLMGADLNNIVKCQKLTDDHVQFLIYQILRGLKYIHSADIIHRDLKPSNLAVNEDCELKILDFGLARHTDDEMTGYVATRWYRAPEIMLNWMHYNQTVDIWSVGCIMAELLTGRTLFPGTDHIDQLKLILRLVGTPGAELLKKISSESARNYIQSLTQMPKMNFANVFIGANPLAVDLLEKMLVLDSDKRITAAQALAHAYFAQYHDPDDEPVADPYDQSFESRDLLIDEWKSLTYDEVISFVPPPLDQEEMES
# assay_name: Inhibition of p38alpha
pIC50: −log10 of the molar value.
experimental_endpoint: pIC50

Solved entries (count: 2):
{"smiles": "N#Cc1cnc2c(Cl)cc(NCc3cnc[nH]3)cc2c1Nc1ccc(F)c(Cl)c1", "assayed_system": "Mitogen-activated protein kinase 14 (Homo sapiens)", "pIC50": 4.95}
{"smiles": "N#Cc1cnc2c(Cl)cc(NCc3cccc[n+]3[O-])cc2c1Nc1ccc(F)c(Cl)c1", "assayed_system": "Mitogen-activated protein kinase 14 (Homo sapiens)", "pIC50": "< 4.40"}

# map each compound to its pIC50
1. CN(C)CCCn1cc(CNc2cc(Br)c3ncc(C#N)c(Nc4ccc(F)c(Cl)c4)c3c2)nn1
2. CCCc1[nH]cnc1CNc1cc(Cl)c2ncc(C#N)c(Nc3ccc(F)c(Cl)c3)c2c1
3. Cn1cnc(CNc2cc(Br)c3ncc(C#N)c(Nc4ccc(F)c(Cl)c4)c3c2)c1
4. N#Cc1cnc2c(F)cc(NCc3c[nH]cn3)cc2c1Nc1ccc(F)c(Cl)c1

1: < 4.40; 2: < 4.40; 3: < 4.40; 4: < 4.40

---

# assayed_system: CYP3A4 (Homo sapiens)
# Sequence (P08684 whole entry): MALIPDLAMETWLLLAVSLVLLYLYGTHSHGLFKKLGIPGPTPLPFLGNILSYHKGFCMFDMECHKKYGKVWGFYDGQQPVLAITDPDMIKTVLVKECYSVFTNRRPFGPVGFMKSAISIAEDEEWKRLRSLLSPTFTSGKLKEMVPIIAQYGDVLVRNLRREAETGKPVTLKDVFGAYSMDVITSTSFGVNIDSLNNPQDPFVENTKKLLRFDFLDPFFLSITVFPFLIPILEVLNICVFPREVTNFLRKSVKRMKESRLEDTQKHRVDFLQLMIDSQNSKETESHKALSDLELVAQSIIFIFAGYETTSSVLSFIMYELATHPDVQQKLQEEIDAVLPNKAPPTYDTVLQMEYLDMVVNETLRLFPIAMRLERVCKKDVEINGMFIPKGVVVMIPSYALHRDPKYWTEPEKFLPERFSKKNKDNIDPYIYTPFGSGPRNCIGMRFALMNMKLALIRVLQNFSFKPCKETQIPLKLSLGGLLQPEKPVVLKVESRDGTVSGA
# assay_name: Inhibition of CYP3A4 at 3 uM
# Assay type: ADME
experimental_endpoint: inhibition at 3 µM (%)
One number for each entry, in %.

{"smiles": "N#Cc1cnc2c(F)cc(NCc3c[nH]cn3)cc2c1Nc1ccc(F)c(Cl)c1", "assayed_system": "CYP3A4 (Homo sapiens)", "unit": "%", "inhibition at 3 µM": 96}

Next compound, please.
Give its inhibition at 3 µM value. Item: `CN(C)CCCn1cc(CNc2cc(Br)c3ncc(C#N)c(Nc4ccc(F)c(Cl)c4)c3c2)nn1`
66
